# Test system: barnyardgrass (Echinochloa crus-galli)
# testProtocol: Test A preemergence
# Format: in vivo
# runParameters: 500 g ai/ha, preemergence; 0 to 100 scale, 0 = no effect, 100 = complete control
propertyMeasured: Plant response rating, Barnyardgrass
Could you keep your reply to the number by itself?

(Q) Request the reported Plant response rating, Barnyardgrass associated with C#Cc1cccc(C2CNC(=O)C2C(=O)Nc2cccc(F)c2F)c1 (racemic)
(A) 90

====

# Tested on: barnyardgrass (Echinochloa crus-galli)
# testProtocol: Test A preemergence
# Format: in vivo
# runParameters: Echinochloa crus-galli, pre-emergence, 240 h, 125 g ai/ha, Preemergence, visual injury rating after approximately 10 d; read-out: Barnyardgrass plant response rating (0 to 100 scale, 0 is no effect, 100 is complete control)
propertyMeasured: pest or weed control at 125 g/ha (%)
// units = %; emit number, no label

Completed entries (count: 2):
CN1CC[C@H](c2ccccc2)[C@@H](C(=O)Nc2ccccc2F)C1=O [Compound 1032]
20
CN1CC[C@H](c2ccc(OC(F)(F)F)cc2)[C@@H](C(=O)Nc2ccccc2C(F)(F)F)C1=O [Compound 998]
0

(Q) What value of pest or weed control at 125 g/ha has been reported for the following compound? Cc1cc([C@H]2CNC(=O)[C@@H]2C(=O)Nc2ccccc2F)ccc1C(F)(F)F [Compound 1042]
(A) 90

(Q) Given the compound O=C1NC[C@H](c2ccc3c(c2)OCO3)[C@H]1C(=O)Nc1ccc(F)c(F)c1F [Compound 1027] , what is its reported pest or weed control at 125 g/ha?
(A) 90

(Q) Entry O=C(Nc1cccc(F)c1F)[C@H]1C(=S)NC[C@@H]1c1ccc(C(F)(F)F)cc1 (racemic) [Compound 1048] has what pest or weed control at 125 g/ha?
(A) 90

(Q) Given O=C(Nc1ccc(F)c(F)c1F)[C@H]1C(=O)N(C2CC2)CC[C@@H]1c1ccc(F)cc1 [Compound 1004] , state its recorded pest or weed control at 125 g/ha.
(A) 0

(Q) What does the data say about its pest or weed control at 125 g/ha? Entry: CCOc1cccc([C@H]2CN(C)C(=O)[C@@H]2C(=O)Nc2cccc(F)c2F)c1 [Compound 956]
(A) 100

(Q) Which pest or weed control at 125 g/ha value is on record for O=C(Nc1cccc(Cl)c1F)[C@H]1C(=O)N(C2CC2)CC[C@@H]1c1ccc(F)cc1 [Compound 1006] ?
(A) 0

(Q) Quick one: pest or weed control at 125 g/ha of CN1C[C@H](c2ccc(C(F)(F)F)cc2)[C@@H](C(=O)Nc2cnccc2C(F)(F)F)C1=O [Compound 1065] ?
(A) 70

(Q) I would be grateful if you could share the reported pest or weed control at 125 g/ha for CN1C[C@H](c2csc(C(F)(F)F)c2)[C@@H](C(=O)Nc2cccc(F)c2F)C1=O [Compound 959] .
(A) 90

====

# System: giant foxtail (Setaria faberi)
# testProtocol: Test G Post-Emergence Protocol
# Format: in vivo
# runParameters: Setaria faberi, post-emergence, 312 h, 250 g ai/ha, evaluated after 13 days, 100=total damage to plant, 0=no damage to plant, read-out: Foxtail, Giant damage rating
propertyMeasured: pest or weed control at 250 g/ha (%)
State just the number; it will be interpreted in %.

Please review the entries below; each comes with its answer.
CN1C[C@@H](c2ccc(C(F)(F)F)cc2)[C@H](C(=O)Nc2ccc(F)nn2)C1=O (racemic)
30
COc1cc(C)cc([C@@H]2CN(C)C(=O)[C@H]2C(=O)Nc2cccc(F)c2C)c1 (racemic)
80

(Q) Requested read-out: pest or weed control at 250 g/ha. Entry: Cc1cc([C@H]2CN(C)C(=O)[C@@H]2C(=O)Nc2cccc(F)n2)cc(C(F)(F)F)c1 (racemic)
(A) 80

(Q) // returns reported pest or weed control at 250 g/ha for input CN1C[C@H](c2ccc(C(F)(F)F)cc2)[C@@H](C(=O)Nc2cnccc2S(C)(=O)=O)C1=O (racemic)
(A) 70

(Q) Entry CN1C[C@@H](c2cccc(C(F)(F)F)c2)[C@H](C(=O)Nc2cccnc2F)C1=O has what pest or weed control at 250 g/ha?
(A) 0

(Q) What does the data say about its pest or weed control at 250 g/ha? Entry: CN1C[C@H](c2ccc(C(F)(F)F)c(C(F)(F)F)c2)[C@@H](C(=O)Nc2ccccc2S(C)(=O)=O)C1=O (racemic)
(A) 70

(Q) Given CN1C[C@H](c2ccc(C(F)(F)F)cc2)[C@@H](C(=O)Nc2ccc[n+]([O-])c2C(F)(F)F)C1=O (racemic) , state its recorded pest or weed control at 250 g/ha.
(A) 20

(Q) Reported pest or weed control at 250 g/ha for CN1CCCC(NC(=O)[C@H]2C(=O)N(C)C[C@@H]2c2ccc(C(F)(F)F)cc2)C1=O (mixture of isomers) : what is it?
(A) 20

(Q) Fill in: pest or weed control at 250 g/ha of CN1C[C@H](c2cccc(C(F)(F)F)c2)[C@@H](C(=O)Nc2ccc3cccnc3n2)C1=O (racemic) is ___
(A) 0
